FYI, the data here is from ChEMBL document CHEMBL3885861.

# Species: Rattus norvegicus
# Measurement Description: Open TG-GATES - Regimen: Daily Repeat
# Type: toxicity, organism-based, Sprague-Dawley
# Parameters: regimen Daily Repeat, gender Male, age 6 weeks
# Assay Context: in vivo, po, 0 mg/kg, 72 h, tissue Blood, route gavage, dose level Control, time 3 day
For each of the compounds below, state its MCV.
Record the result as number plus unit.

Compound	Endpoint Value
C[C@H]1O[C@H](O[C@H]2[C@H](O)[C@@H](O)[C@@H](O[C@H]3[C@H](O)[C@@H](O)C(O)O[C@@H]3CO)O[C@@H]2CO)[C@H](O)[C@@H](O)[C@@H]1N[C@H]1C=C(CO)[C@@H](O)[C@H](O)[C@H]1O (some centres undefined)	65.4 fL
OCCN1CCN(CCCN2c3ccccc3Sc3ccc(C(F)(F)F)cc32)CC1	64.4 fL
Cc1cccc(C)c1OCC(C)N (centres undefined)	61.9 fL
O=C1CN(/N=C/c2ccc([N+](=O)[O-])o2)C(=O)N1	62.8 fL
C=C(C)[C@H]1Cc2c(ccc3c2O[C@@H]2COc4cc(OC)c(OC)cc4[C@@H]2C3=O)O1	64.1 fL

Hi there! I need MCV for each item below, if you can.
1. Cn1cc[nH]c1=S
2. CCOC(=O)C(C)(C)Oc1ccc(Cl)cc1 [CLOFIBRATE]
3. C[C@H]1C(=O)O[C@@H]2CCN3CC=C(COC(=O)[C@](C)(O)[C@]1(C)O)[C@H]23
4. O=[N+]([O-])c1ccc(O)c([N+](=O)[O-])c1

# output
62.8 fL
61.1 fL
62.6 fL
64 fL

----------
For each of the compounds below, state its TG.
# Species on record: Rattus norvegicus
# Measurement Description: Open TG-GATES - Regimen: Single
# Assay type: toxicity, organism-based, Sprague-Dawley
# Design: regimen Single, gender Male, age 6 weeks
# Assay Context: in vivo, po, 0 mg/kg, 9 h, tissue Plasma, route gavage, dose level Control
Answers are plain numbers, in mg/dL.

Compound	Endpoint Value
C[C@H]1O[C@H](O[C@H]2[C@H](O)[C@@H](O)[C@@H](O[C@H]3[C@H](O)[C@@H](O)C(O)O[C@@H]3CO)O[C@@H]2CO)[C@H](O)[C@@H](O)[C@@H]1N[C@H]1C=C(CO)[C@@H](O)[C@H](O)[C@H]1O (some centres undefined) [ACARBOSE]	52.4

Hi there! I need TG for each item below, if you can.
1. O=[N+]([O-])c1ccc(O)c([N+](=O)[O-])c1 [2,4-DINITROPHENOL]
2. C=C(C)[C@H]1Cc2c(ccc3c2O[C@@H]2COc4cc(OC)c(OC)cc4[C@@H]2C3=O)O1 [ROTENONE]
3. C[C@H]1C(=O)O[C@@H]2CCN3CC=C(COC(=O)[C@](C)(O)[C@]1(C)O)[C@H]23 [MONOCROTALINE]
4. OCCN1CCN(CCCN2c3ccccc3Sc3ccc(C(F)(F)F)cc32)CC1 [FLUPHENAZINE]
5. CCOC(=O)C(C)(C)Oc1ccc(Cl)cc1 [CLOFIBRATE]

# output
47.8
42.2
50.4
46.8
68.2

----------
# Organism: Rattus norvegicus
# Measurement Description: Open TG-GATES - Regimen: Single
# Format: toxicity, organism-based, Sprague-Dawley
# Parameters: regimen Single, gender Male, age 6 weeks
# Assay Context: in vivo, po, 0 mg/kg, 24 h, route gavage, dose level Control
For each of the molecules below, state its TERMINAL_BW.
Answers are plain numbers, in g.

Record excerpt, results attached:
Molecule	Units Of Measure	TERMINAL_BW
Cc1ccc2cc3c(ccc4ccccc43)c3c2c1CC3	g	220.6
Cn1cc[nH]c1=S	g	225.5
OCCN1CCN(CCCN2c3ccccc3Sc3ccc(C(F)(F)F)cc32)CC1	g	211.2
C[C@H]1O[C@H](O[C@H]2[C@H](O)[C@@H](O)[C@@H](O[C@H]3[C@H](O)[C@@H](O)C(O)O[C@@H]3CO)O[C@@H]2CO)[C@H](O)[C@@H](O)[C@@H]1N[C@H]1C=C(CO)[C@@H](O)[C@H](O)[C@H]1O (some centres undefined)	g	211.4
C[C@H]1C(=O)O[C@@H]2CCN3CC=C(COC(=O)[C@](C)(O)[C@]1(C)O)[C@H]23	g	221.9

Hi there! I need TERMINAL_BW for each item below, if you can.
1. O=[N+]([O-])c1ccc(O)c([N+](=O)[O-])c1
2. CCOC(=O)C(C)(C)Oc1ccc(Cl)cc1 [CLOFIBRATE]
3. C=C(C)[C@H]1Cc2c(ccc3c2O[C@@H]2COc4cc(OC)c(OC)cc4[C@@H]2C3=O)O1
4. Cc1cccc(C)c1OCC(C)N (centres undefined)

# output
219.1
236.7
212.6
223.6
